Values were extracted from patent US10988465B2.

Molecular target: UniProtKB P61073
Sequence (P61073 whole entry): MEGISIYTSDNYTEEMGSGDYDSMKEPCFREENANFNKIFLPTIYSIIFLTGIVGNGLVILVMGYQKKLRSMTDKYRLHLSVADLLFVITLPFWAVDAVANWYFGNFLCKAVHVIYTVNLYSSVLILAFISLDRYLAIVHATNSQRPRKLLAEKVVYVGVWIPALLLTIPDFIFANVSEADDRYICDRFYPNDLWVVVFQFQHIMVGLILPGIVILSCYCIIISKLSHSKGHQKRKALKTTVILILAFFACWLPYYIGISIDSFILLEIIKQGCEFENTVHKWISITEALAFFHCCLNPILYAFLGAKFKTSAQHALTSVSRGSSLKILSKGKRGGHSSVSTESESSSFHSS
Experiment: Intracellular CXCL-12-induced calcium mobilization assay (FLIPR)
Conditions: U87.CXCR4 cells; CXCL-12 25-50 ng/mL; compound added 15 min before; read-out: IC50 CXCL-12 Ca^2+ flux U87.CXCR4+
ASSAY_READOUT: IC50

Would you please look over these solved cases?
[[record]]
compound = "Cc1cccnc1[C@@H]1CCC[C@H](c2nc3cccc(N4CCN(C)CC4)c3[nH]2)N1C (racemic) [I-3]"
result = "0.01 to 100 nM"

[[record]]
compound = "CC(C)c1cccnc1[C@@H]1CCC[C@H](c2nc3cccc(N4CCN(C)CC4)c3[nH]2)N1C"
result = "100 to 1000 nM"


Consider the following items and state reported IC50 for each.
1. CN(C)C1CCN(c2cccc3nc([C@H]4CCC[C@@H](c5ncccc5Cl)N4C)[nH]c23)CC1
2. Cc1cc(F)cnc1[C@@H]1CCC[C@H](c2nc3cccc(N4CCN(C)CC4)c3[nH]2)N1C

Result:
≥ 1000 nM
0.01 to 100 nM
